Origin of measurements: the kinase profiling compilation of Christmann-Franck et al. (2016)

The entries below come with measured residual activity values attached.
- TGT: NTRK3 (human) (UniProt Q16288)
- Sequence (Q16288 whole entry, looked up): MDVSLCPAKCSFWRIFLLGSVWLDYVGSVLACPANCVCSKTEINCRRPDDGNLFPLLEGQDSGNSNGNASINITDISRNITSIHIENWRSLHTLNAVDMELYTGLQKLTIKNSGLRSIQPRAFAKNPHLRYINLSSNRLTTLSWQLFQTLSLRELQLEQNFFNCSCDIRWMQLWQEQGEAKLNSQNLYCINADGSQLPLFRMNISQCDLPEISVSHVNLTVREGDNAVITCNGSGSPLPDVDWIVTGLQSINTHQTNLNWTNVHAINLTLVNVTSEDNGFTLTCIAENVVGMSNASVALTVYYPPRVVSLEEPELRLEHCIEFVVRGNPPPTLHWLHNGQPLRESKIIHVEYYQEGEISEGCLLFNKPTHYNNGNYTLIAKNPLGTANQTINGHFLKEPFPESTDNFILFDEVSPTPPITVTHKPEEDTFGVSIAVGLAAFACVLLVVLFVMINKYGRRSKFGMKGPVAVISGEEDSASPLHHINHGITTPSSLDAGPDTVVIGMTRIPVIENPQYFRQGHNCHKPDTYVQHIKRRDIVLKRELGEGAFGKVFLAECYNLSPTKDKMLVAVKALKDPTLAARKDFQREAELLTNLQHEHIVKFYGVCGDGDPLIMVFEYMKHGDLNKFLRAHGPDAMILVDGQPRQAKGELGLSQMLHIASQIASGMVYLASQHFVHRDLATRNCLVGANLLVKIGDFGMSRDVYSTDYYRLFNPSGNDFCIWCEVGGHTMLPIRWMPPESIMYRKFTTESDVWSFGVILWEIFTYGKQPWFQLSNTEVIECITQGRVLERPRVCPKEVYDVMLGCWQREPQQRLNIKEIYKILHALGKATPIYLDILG
- METHOD_NOTES: radiometric filter-binding kinase assay, Kinase HotSpot
- ASSAY_SETUP: compound 0.5 µM; ATP 10 µM
Record the value in %, omitting the unit from your answer.

{"STRUCTURE": "Nc1ncnc2[nH]nc(Nc3ccc(F)cc3)c12", "DISPLAY_UNIT": "%", "residual activity": 81.5}
{"STRUCTURE": "O=C(Nc1cccc(Nc2nccc(Nc3cccc(C(F)(F)F)c3)n2)c1)C1CC1", "DISPLAY_UNIT": "%", "residual activity": 77.3}

[Q] Reported residual activity for CNc1cc2c(Nc3cccc(Br)c3)ncnc2cn1 : what is it?
[A] 72.7

[Q] Fill in the blank: the reported residual activity of CC#CC(=O)Nc1cc2c(Nc3ccc(F)c(Cl)c3)ncnc2cn1 is ____.
[A] 95.3

[Q] // lookup residual activity for O=C1NC(=O)C(c2cn(CCCn3ccnc3)c3ccccc23)=C1Nc1ccccc1
[A] 40

###

- TGT: JAK1 JH1 catalytic (human) (UniProt P23458)
- Sequence (P23458 whole entry, looked up): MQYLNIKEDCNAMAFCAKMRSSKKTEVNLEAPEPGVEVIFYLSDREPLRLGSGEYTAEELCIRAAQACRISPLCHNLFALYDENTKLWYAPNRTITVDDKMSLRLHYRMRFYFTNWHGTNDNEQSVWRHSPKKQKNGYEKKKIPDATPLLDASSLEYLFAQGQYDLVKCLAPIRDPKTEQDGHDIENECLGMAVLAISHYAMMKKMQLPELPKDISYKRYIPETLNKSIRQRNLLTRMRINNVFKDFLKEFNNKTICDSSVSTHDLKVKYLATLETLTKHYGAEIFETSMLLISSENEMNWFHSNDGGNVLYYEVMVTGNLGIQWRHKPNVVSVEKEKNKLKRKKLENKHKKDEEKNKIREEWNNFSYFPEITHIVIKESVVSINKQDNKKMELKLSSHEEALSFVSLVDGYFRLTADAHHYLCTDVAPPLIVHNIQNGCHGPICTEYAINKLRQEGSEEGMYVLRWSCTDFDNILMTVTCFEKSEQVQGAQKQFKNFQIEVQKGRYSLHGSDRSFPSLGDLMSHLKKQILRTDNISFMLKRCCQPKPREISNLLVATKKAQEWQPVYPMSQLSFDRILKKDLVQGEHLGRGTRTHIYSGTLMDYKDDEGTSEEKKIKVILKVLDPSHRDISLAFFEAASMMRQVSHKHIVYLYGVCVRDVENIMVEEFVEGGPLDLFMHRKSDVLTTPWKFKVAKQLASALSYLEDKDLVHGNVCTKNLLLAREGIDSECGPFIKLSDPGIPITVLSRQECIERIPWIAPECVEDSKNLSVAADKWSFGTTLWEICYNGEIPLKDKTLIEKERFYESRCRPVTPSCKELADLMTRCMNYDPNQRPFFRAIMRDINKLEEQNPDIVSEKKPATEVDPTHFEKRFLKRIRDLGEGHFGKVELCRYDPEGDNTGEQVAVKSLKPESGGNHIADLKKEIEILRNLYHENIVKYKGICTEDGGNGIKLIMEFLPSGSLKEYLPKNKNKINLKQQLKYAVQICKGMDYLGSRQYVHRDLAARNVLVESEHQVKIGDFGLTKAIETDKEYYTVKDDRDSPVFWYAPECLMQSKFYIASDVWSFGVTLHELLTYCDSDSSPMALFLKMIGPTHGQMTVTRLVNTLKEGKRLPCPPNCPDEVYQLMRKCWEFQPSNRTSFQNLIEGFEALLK
- METHOD_NOTES: radiometric filter-binding kinase assay, Kinase HotSpot
- ASSAY_SETUP: compound 0.5 µM; ATP 10 µM
In this section we review reported residual activity values for a set of compounds.
Reply with a number, then the unit it belongs to.

Take a look at these entries with their results.
{"STRUCTURE": "CCOC(=O)c1c(C)[nH]c(/C=C2\\C(=O)Nc3ccccc32)c1C", "TGT": "JAK1 JH1 catalytic (human) (UniProt P23458)", "residual activity": "97.1%"}
{"STRUCTURE": "CCN(CC)CCNC(=O)c1c(C)[nH]c(/C=C2\\C(=O)Nc3ccc(F)cc32)c1C", "TGT": "JAK1 JH1 catalytic (human) (UniProt P23458)", "residual activity": "71.9%"}
{"STRUCTURE": "Cc1ccc(NC2=CC(=O)c3sc(C)nc3C2=O)cc1", "TGT": "JAK1 JH1 catalytic (human) (UniProt P23458)", "residual activity": "95.1%"}
{"STRUCTURE": "O=C1Nc2ccc(Cl)cc2/C1=C/c1cc(Cl)c(O)c(Cl)c1", "TGT": "JAK1 JH1 catalytic (human) (UniProt P23458)", "residual activity": "103%"}
{"STRUCTURE": "Nc1ncnc2[nH]nc(Nc3ccc(F)cc3)c12", "TGT": "JAK1 JH1 catalytic (human) (UniProt P23458)", "residual activity": "99%"}
{"STRUCTURE": "Nc1ncnc2c1c(-c1ccc(Oc3ccccc3)cc1)cn2C1CCCC1", "TGT": "JAK1 JH1 catalytic (human) (UniProt P23458)", "residual activity": "111%"}
{"STRUCTURE": "c1ccc(-c2n[nH]cc2-c2ccnc3ccccc23)nc1", "TGT": "JAK1 JH1 catalytic (human) (UniProt P23458)", "residual activity": "96.7%"}

Would you kindly look at the next entry?
[Q] residual activity lookup needed for CC#CC(=O)Nc1cc2c(Nc3ccc(F)c(Cl)c3)ncnc2cn1 , thanks.
[A] 104%

###

- TGT: RPS6KB2 (human) (UniProt Q9UBS0)
- Sequence (Q9UBS0 whole entry, looked up): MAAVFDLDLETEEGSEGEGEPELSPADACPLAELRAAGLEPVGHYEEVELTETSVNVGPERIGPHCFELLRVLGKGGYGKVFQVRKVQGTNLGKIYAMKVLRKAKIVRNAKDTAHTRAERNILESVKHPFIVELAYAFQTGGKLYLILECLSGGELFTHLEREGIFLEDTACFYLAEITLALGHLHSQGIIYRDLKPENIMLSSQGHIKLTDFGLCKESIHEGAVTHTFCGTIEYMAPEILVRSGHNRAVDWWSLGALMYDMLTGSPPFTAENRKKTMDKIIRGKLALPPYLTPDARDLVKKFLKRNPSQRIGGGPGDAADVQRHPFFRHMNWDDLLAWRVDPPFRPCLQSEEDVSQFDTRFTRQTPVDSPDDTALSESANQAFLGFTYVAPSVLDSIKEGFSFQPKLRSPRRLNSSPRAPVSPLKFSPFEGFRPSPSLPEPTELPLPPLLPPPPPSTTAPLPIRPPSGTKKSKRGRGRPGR
- METHOD_NOTES: radiometric filter-binding kinase assay, Kinase HotSpot
- ASSAY_SETUP: compound 0.5 µM; ATP 10 µM
EXPERIMENTAL_READOUT: residual activity (%)
Quick note: give the figure in %, leave out the unit.

Known residual activity results, listed for orientation:
{"STRUCTURE": "N#CC(C#N)=C(N)/C(C#N)=C/c1ccc(O)cc1", "residual activity, %": 96.8}
{"STRUCTURE": "O=C1Nc2ccc(Cl)cc2/C1=C/c1cc(Cl)c(O)c(Cl)c1", "residual activity, %": 98.2}

[Q] Observed residual activity on RPS6KB2 (human) (UniProt Q9UBS0) for COc1cc2ncnc(Nc3cccc(Cl)c3)c2cc1OC , please.
[A] 105

[Q] Form field - read-out: residual activity; system: RPS6KB2 (human) (UniProt Q9UBS0); submitted item: CCC(=O)Nc1ccc2ncnc(Nc3cccc(Br)c3)c2c1
[A] 94.9

[Q] Given the entry CNC(=O)c1cc(Oc2ccc(NC(=O)Nc3ccc(Cl)c(C(F)(F)F)c3)cc2)ccn1 , what residual activity was observed with RPS6KB2 (human) (UniProt Q9UBS0)?
[A] 103

[Q] I'm curious: which residual activity was measured for O=c1cc(N2CCOCC2)oc2c1ccc1ccccc12 tested on RPS6KB2 (human) (UniProt Q9UBS0)?
[A] 99.6

[Q] Record Cc1[nH]c(/C=C2\C(=O)Nc3ccc(S(=O)(=O)N(C)c4cccc(Cl)c4)cc32)c(C)c1C(=O)N1CCN(C)CC1 : what is its residual activity with RPS6KB2 (human) (UniProt Q9UBS0)?
[A] 98.4

[Q] Which measured residual activity belongs to O=C(Nc1cccc(Nc2nccc(Nc3cccc(C(F)(F)F)c3)n2)c1)C1CC1 , tested on RPS6KB2 (human) (UniProt Q9UBS0)?
[A] 96

[Q] Query the reported residual activity for RPS6KB2 (human) (UniProt Q9UBS0); item: c1ccc(-c2n[nH]c3c2oc2ccccc23)cc1
[A] 99.8

[Q] Missing value: residual activity, RPS6KB2 (human) (UniProt Q9UBS0), entry CC(C)N(CCC(=O)c1ccc2ccccc2c1)Cc1ccccc1 . Fill in?
[A] 94.3

[Q] Give recorded residual activity with RPS6KB2 (human) (UniProt Q9UBS0) for the following compound: O=C1NC(=O)c2c1c1c3ccccc3n3c1c1c2c2ccccc2n1C1CCC3O1
[A] 35

[Q] Give residual activity (RPS6KB2 (human) (UniProt Q9UBS0)) of the following compound: Nc1ncnc2c1c(-c1ccc(Oc3ccccc3)cc1)cn2C1CCCC1
[A] 107

[Q] # get_value(readout= residual activity, system= RPS6KB2 (human) (UniProt Q9UBS0)) for CNc1cc2c(Nc3cccc(Br)c3)ncnc2cn1
[A] 99.8

[Q] Item CCCC(=O)Oc1ccc2[nH]c(C(=O)c3cc4ccccc4[nH]3)cc2c1 with RPS6KB2 (human) (UniProt Q9UBS0) - residual activity?
[A] 102

[Q] Fill in the recorded residual activity for this compound, with RPS6KB2 (human) (UniProt Q9UBS0) as test system: CCN(CC)C(=O)c1ccc(Nc2nc(OCC3CCCCC3)c3nc[nH]c3n2)cc1
[A] 102

###

- TGT: UniProt Q9NQU5
- Sequence (Q9NQU5 whole entry, looked up): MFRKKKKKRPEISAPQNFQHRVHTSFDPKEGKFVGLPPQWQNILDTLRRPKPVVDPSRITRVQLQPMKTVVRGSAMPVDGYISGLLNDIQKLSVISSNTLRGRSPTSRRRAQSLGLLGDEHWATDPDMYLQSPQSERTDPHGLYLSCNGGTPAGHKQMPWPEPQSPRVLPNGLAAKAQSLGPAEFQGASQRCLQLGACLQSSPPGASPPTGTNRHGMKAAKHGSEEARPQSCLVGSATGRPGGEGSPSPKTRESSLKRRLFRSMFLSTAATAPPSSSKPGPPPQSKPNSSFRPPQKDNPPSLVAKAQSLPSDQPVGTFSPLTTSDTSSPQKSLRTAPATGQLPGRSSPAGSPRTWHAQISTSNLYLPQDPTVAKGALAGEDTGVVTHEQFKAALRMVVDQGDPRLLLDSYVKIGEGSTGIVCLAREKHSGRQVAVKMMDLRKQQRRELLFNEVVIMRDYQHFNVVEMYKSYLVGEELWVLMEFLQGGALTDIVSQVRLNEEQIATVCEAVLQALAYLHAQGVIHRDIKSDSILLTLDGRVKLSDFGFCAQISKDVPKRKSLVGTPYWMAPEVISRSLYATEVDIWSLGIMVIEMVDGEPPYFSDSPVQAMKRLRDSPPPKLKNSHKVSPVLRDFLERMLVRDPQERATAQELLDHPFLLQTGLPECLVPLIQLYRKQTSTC
- METHOD_NOTES: radiometric filter-binding kinase assay, Kinase HotSpot
- ASSAY_SETUP: compound 0.5 µM; ATP 10 µM
EXPERIMENTAL_READOUT: residual activity (%)
The response must be a number in % with no trailing unit.

{"STRUCTURE": "CCOC(=O)c1c(C)[nH]c(/C=C2\\C(=O)Nc3ccccc32)c1C", "residual activity (%)": 81.4}

[Q] Returns the measured residual activity for the input compound. Input: O=c1cc(N2CCOCC2)oc2c1ccc1ccccc12
[A] 92

[Q] Reported residual activity for Nc1cccc(-c2cc3c(Oc4cccc(O)c4)ncnc3[nH]2)c1 : what is it?
[A] 109

###

- TGT: MAPK8 (human)
- METHOD_NOTES: radiometric filter-binding kinase assay, Kinase HotSpot
- ASSAY_SETUP: compound 0.5 µM; ATP 10 µM
EXPERIMENTAL_READOUT: residual activity (%)
Please reply with the bare figure in % and do not write the unit itself.

[Q] Requested read-out: residual activity. Entry: CCOC(=O)c1c(C)[nH]c(/C=C2\C(=O)Nc3ccccc32)c1C
[A] 106

###

Reported residual activity is given for each of the following compounds.
- TGT: NTRK2 (human) (UniProt Q16620)
- Sequence (Q16620 whole entry, looked up): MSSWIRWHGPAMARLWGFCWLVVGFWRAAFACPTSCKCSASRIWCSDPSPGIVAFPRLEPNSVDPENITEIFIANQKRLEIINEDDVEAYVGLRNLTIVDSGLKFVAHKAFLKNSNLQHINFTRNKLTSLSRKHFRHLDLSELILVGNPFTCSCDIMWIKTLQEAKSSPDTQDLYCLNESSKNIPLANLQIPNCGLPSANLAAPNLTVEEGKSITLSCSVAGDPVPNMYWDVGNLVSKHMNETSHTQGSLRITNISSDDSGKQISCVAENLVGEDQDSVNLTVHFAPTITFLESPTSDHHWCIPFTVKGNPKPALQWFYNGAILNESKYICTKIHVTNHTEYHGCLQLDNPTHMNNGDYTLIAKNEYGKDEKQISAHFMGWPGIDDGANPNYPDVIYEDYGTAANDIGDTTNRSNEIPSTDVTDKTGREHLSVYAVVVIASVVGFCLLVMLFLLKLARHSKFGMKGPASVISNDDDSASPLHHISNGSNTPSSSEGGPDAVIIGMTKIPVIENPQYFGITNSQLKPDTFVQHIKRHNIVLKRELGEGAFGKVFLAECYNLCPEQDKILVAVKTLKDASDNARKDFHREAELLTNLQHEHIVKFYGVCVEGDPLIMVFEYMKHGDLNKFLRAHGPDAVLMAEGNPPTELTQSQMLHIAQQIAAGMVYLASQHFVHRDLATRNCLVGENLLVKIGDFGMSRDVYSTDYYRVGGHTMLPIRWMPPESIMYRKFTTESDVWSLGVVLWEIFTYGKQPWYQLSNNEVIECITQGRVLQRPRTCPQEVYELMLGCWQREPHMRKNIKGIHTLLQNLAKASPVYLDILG
- METHOD_NOTES: radiometric filter-binding kinase assay, Kinase HotSpot
- ASSAY_SETUP: compound 0.5 µM; ATP 10 µM
Quick reminder: number only, in %, skip the unit.

Answered examples (4):
{"STRUCTURE": "O=C1NC(=O)/C(=C/c2ccc3c(c2)OC(F)(F)O3)S1", "residual activity, %": 91.9}
{"STRUCTURE": "Oc1cccc(-c2nc(N3CCOCC3)c3oc4ncccc4c3n2)c1", "residual activity, %": 90.2}
{"STRUCTURE": "CC(C)N(CCC(=O)c1ccc2ccccc2c1)Cc1ccccc1", "residual activity, %": 92.1}
{"STRUCTURE": "CNC(=O)c1cc(Oc2ccc(NC(=O)Nc3ccc(Cl)c(C(F)(F)F)c3)cc2)ccn1", "residual activity, %": 90}

[Q] Given Cc1ccc(Nc2nccc(N(C)c3ccc4c(C)n(C)nc4c3)n2)cc1S(N)(=O)=O , state its recorded residual activity.
[A] 91.5

[Q] Which residual activity value is on record for CC(=O)c1ccc(N2CCOCC2)cc1O ?
[A] 92.1

###

Let's look at some molecules and their measured residual activity.
- TGT: EPHA5 (human) (UniProt P54756)
- Sequence (P54756 whole entry, looked up): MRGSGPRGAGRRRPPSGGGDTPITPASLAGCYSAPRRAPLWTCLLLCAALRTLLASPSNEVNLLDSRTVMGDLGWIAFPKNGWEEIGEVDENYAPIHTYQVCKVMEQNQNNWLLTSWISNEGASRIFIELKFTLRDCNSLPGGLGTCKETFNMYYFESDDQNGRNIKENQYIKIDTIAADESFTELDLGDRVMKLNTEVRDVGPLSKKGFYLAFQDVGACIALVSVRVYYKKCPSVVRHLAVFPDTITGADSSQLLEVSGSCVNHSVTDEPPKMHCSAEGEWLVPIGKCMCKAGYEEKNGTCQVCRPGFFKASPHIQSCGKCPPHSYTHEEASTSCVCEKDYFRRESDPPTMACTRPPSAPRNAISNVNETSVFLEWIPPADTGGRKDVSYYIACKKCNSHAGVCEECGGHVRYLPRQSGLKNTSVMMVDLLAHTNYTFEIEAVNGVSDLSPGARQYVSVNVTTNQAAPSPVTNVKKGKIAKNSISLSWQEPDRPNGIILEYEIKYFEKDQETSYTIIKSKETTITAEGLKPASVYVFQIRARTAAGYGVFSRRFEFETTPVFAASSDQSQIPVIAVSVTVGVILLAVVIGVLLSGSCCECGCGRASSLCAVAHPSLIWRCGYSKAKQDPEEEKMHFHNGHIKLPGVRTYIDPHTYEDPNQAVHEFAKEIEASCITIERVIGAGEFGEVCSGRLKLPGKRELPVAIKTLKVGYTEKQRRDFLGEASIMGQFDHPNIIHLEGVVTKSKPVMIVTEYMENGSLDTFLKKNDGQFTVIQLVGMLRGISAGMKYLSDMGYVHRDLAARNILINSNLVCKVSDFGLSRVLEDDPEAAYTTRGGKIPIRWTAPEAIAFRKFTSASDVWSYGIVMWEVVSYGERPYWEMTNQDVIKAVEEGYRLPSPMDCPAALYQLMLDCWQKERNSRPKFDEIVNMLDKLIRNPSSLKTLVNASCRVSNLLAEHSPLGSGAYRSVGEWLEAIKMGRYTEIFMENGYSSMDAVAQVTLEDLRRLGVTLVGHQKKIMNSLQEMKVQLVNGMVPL
- METHOD_NOTES: radiometric filter-binding kinase assay, Kinase HotSpot
- ASSAY_SETUP: compound 0.5 µM; ATP 10 µM
The reply should be a number in %, with the unit left off.

{"STRUCTURE": "COc1cc2ncnc(Nc3cccc(Cl)c3)c2cc1OC", "TGT": "EPHA5 (human) (UniProt P54756)", "DISPLAY_UNIT": "%", "residual activity": 68.3}

[Q] GET /values?readout=residual activity&item= O=C1Nc2ccc(Cl)cc2/C1=C/c1cc(Cl)c(O)c(Cl)c1
[A] 99.4

[Q] # input molecule: CNC(=O)c1cc(Oc2ccc(NC(=O)Nc3ccc(Cl)c(C(F)(F)F)c3)cc2)ccn1 ; wanted: its residual activity
[A] 99.4

[Q] What does the data say about its residual activity? Entry: CC[n+]1c(/C=C/N(C)c2ccccc2)n(-c2ccccc2)c2ccc(-c3nc4ccccc4s3)cc21
[A] 100

[Q] So what's the measured residual activity for this one? CC(=O)c1ccc(N2CCOCC2)cc1O
[A] 109

[Q] Looking for the measured residual activity of Nc1ncnc2c1c(-c1ccc(Oc3ccccc3)cc1)cn2C1CCCC1 , can you help?
[A] 108

[Q] Which residual activity value is on record for COc1ccc2c(c[n+](C)c3c4cc5c(cc4ccc23)OCO5)c1OC ?
[A] 94.6

[Q] Look up residual activity: Nc1ccc2ncnc(NCCc3ccc(Oc4ccccc4)cc3)c2c1
[A] 102
